// provenance: patent US20250136606A1

This listing pairs compounds with measured EC50.
Target: TRPML1 (Homo sapiens, UniProt Q9GZU1)
Sequence (Q9GZU1 whole entry L15A/L16A/L577A/L578A, form open): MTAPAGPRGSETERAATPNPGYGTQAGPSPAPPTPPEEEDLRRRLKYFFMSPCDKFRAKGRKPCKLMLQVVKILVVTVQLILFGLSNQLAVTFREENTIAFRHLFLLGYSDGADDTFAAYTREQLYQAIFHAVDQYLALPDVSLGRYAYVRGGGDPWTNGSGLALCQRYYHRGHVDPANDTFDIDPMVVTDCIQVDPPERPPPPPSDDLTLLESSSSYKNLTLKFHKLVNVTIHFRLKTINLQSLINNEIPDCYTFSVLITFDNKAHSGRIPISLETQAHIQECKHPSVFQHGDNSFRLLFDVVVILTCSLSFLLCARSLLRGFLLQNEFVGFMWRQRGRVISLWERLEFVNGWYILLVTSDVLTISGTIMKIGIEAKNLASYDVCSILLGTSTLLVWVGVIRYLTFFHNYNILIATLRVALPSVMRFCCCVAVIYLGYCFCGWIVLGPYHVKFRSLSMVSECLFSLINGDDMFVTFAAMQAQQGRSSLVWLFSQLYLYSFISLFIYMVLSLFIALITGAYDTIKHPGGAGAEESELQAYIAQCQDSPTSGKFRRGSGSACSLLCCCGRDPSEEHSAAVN
Assay: Fluorescent TRPML1 assay (Fluo4-AM calcium fluorescence in doxycycline-induced HEK-293 Trex cells)
Assay type: cell-based
Details: fluorescent calcium assay
experimental endpoint: EC50

compound	reported result
C[C@@H]1CN(c2ncnc3c2c(-c2ccncc2)cn3-c2cc(F)cc(Cl)c2)CCN1C(=O)OC(C)(C)C [Compound 238]	< 100 nM
C[C@H]1CN(C(=O)OC(C)(C)C)CCN1c1ncnc2c1c(-c1ccccc1F)cn2-c1nccc(C#N)n1 [Compound 438]	< 100 nM
CC(C)(CF)OC(=O)N1CCN(c2ncnc3c2c(-c2ccccc2F)cn3-c2cncnc2)CC1 [Compound 173]	500 to 2000 nM
CCN(CC)c1cn(-c2cccc(Cl)c2)c2ncnc(N3CCN(C(=O)OC(C)(C)C)[C@H](C)C3)c12 [Compound 375]	< 100 nM

###

Biological target: TRPML3 (Homo sapiens, UniProt Q8TDD5)
Construct: expressed in transfected cells
Sequence (Q8TDD5 whole entry): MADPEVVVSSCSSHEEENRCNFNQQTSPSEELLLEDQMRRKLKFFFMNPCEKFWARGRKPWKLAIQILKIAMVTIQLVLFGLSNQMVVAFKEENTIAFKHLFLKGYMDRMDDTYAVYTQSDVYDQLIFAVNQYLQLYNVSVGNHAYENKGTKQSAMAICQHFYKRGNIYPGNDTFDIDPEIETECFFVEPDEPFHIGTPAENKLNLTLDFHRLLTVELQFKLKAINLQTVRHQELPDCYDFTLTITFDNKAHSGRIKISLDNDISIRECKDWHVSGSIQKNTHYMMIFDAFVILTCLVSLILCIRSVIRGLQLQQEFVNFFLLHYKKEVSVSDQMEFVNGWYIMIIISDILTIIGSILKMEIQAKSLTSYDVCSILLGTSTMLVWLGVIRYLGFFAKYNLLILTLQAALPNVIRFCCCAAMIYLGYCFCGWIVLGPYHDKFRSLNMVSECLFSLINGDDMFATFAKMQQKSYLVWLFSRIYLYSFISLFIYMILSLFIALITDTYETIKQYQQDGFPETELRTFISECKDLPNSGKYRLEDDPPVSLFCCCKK
Test: Fluorescent TRPML3 assay (performed as for TRPML1, substituting the TRPML3 subtype)
Assay type: cell-based
pEC50: −log10 of the molar value.

cpd smiles	pEC50
C[C@H]1CN(c2ncnc3c2c(C(F)(F)F)cn3-c2cc(C#N)ccn2)[C@@H](C)CN1C(=O)OC(C)(C)C	> 7.00
C[C@@H]1CN(c2ncnc3c2c(C(F)(F)F)cn3-c2cc(F)ccn2)[C@@H](C)CN1C(=O)OC1(C)CC1	6.30 to 7.00
Cc1cn(-c2ccccn2)c2ncnc(N3C[C@@H](C)N(C(=O)OC(C)(C)C)C[C@@H]3C)c12	6.30 to 7.00
C[C@@H]1CN(c2ncnc3c2c(C(C)(C)C)cn3-c2nccc(C#N)n2)[C@@H](C)CN1C(=O)OC(C)(C)C	6.30 to 7.00
C[C@@H]1CN(c2ncnc3c2c(C(F)(F)F)cn3-c2cc(F)cc(F)c2)[C@@H](C)CN1C(=O)OC1(C)CC1	6.30 to 7.00
Cc1c(C(F)(F)F)c2c(N3C[C@@H](C)N(C(=O)OC(C)(C)C)C[C@@H]3C)ncnc2n1-c1cc(C#N)ccn1	6.30 to 7.00
C[C@@H]1CN(c2ncnc3c2c(C(F)F)cn3-c2cc(C#N)ccn2)[C@@H](C)CN1C(=O)OC1(C)CC1	> 7.00

###

This listing pairs compounds with measured EC50.
Molecular target: TRPML1 (Homo sapiens, UniProt Q9GZU1)
Test: Fluorescent TRPML1 assay (Fluo4-AM calcium fluorescence in doxycycline-induced HEK-293 Trex cells)
Format: cell-based
experimental endpoint: EC50

cpd smiles	experimental endpoint	reported result
C[C@@H]1CN(c2ncnc3c2c(C(F)(F)F)cn3-c2nccc(C#N)n2)[C@@H](C)CN1C(=O)OC(C)(C)C	EC50	100 to 500 nM
C[C@@H]1CN(c2ncnc3c2c(C(F)(F)F)cn3-c2cc(C#N)ccn2)[C@@H](C)CN1C(=O)OC1(C)CCC1	EC50	< 100 nM
C[C@@H]1CN(c2ncnc3c2c(C(F)(F)F)cn3-c2ccccn2)[C@@H](C)CN1C(=O)OC(C)(C)C	EC50	100 to 500 nM
C[C@@H]1CN(c2ncnc3c2c(C2CC2)cn3-c2cccc(F)c2)[C@@H](C)CN1C(=O)OC(C)(C)C	EC50	< 100 nM
